Kindly supply the reported gamma_day10 values for the records listed here.
test system: K562 CRISPRi cells; assay: Perturb-seq pooled growth measurement (sgRNA counts, growth phenotype γ, relative activity); assay type: cell-based, human; details: pooled growth phenotype γ of the Perturb-seq sgRNA, day 10, K562 CRISPRi cells
Hey, just send me the number, nothing else.

Req: Provide gamma_day10 value for the following substance: POLR2H_ + _184081251.23-P1P2_12 (guide GGGGCCACGAGAGCAGGAGA; listed as DNA, chemistry not fully specified)
Resp: −0.2298

Req: Return value of gamma_day10 for input RPS18_ + _33239917.23-P1P2_00 (guide GCTGCGATGCCGCTGGATCA; listed as DNA, chemistry not fully specified) , no commentary.
Resp: −0.503

Req: Using the record for RPS14_ + _149829238.23-P1P2_08 (guide GAGGCCCGGGCTCGACAATC; listed as DNA, chemistry not fully specified) , state its measured gamma_day10.
Resp: −0.0006109

Req: Read off the recorded gamma_day10 for SEC61A1_ −_127771295.23-P1_03 (guide GGTACTGACGTGTCTCTCGG; listed as DNA, chemistry not fully specified)
Resp: −0.3419

Req: Give recorded gamma_day10. ALDOA_ + _30077139.23-P1P2_07 (guide GGTCACCAGGCCCCCTTCTG; listed as DNA, chemistry not fully specified)
Resp: −0.3351

Req: Entry MTOR_ + _11322547.23-P1P2_10 (guide GGGCAGGGGGCCTGAAGCAG; listed as DNA, chemistry not fully specified) needs its gamma_day10 filled in; supply it.
Resp: −0.2327

###

test system: K562 CRISPRi cells; assay: Perturb-seq pooled growth measurement (sgRNA counts, growth phenotype γ, relative activity); assay type: cell-based, human; conditions: γ relative to perfectly matched sgRNA (_00) of the same gene, day 10
Give measured relative_activity_day10 for each item. Keep answers brief.
Just the number, please, no unit after it.

Req: Report relative_activity_day10 for HSPA5_ + _128003624.23-P1P2_04 (guide GAGCCGAGAAGGCGACGGTG; listed as DNA, chemistry not fully specified)
Resp: 0.989

Req: For the substance ALDOA_ + _30077139.23-P1P2_14 (guide GGTCACCAGGACCGCTTCTG; listed as DNA, chemistry not fully specified) , give its measured relative_activity_day10 value.
Resp: 0.4274

Req: Read the entry ALDOA_ + _30077139.23-P1P2_07 (guide GGTCACCAGGCCCCCTTCTG; listed as DNA, chemistry not fully specified) and write its reported relative_activity_day10.
Resp: 0.9143

Req: Kindly indicate its recorded relative_activity_day10. Item: CDC23_ −_137548987.23-P1P2_00 (guide GACAGCCACCGGGACCATGG; listed as DNA, chemistry not fully specified)
Resp: 1

Req: Specify relative_activity_day10 for CDC23_ −_137548987.23-P1P2_04 (guide GACAGCCAACGGGACCATGG; listed as DNA, chemistry not fully specified) and stop.
Resp: 0.8148

Req: Return reported relative_activity_day10. Input substance: DUT_ + _48624411.23-P1P2_00 (guide GCGAGCGAGGAGACCACCGG; listed as DNA, chemistry not fully specified)
Resp: 1
